target: Adenosine receptor A3 (Homo sapiens, UniProt P0DMS8); test: Selectivity interaction (Radioligand binding assay (MDS Pharma Service)) EUB0000296b ADORA3
Sequence (P0DMS8 whole entry): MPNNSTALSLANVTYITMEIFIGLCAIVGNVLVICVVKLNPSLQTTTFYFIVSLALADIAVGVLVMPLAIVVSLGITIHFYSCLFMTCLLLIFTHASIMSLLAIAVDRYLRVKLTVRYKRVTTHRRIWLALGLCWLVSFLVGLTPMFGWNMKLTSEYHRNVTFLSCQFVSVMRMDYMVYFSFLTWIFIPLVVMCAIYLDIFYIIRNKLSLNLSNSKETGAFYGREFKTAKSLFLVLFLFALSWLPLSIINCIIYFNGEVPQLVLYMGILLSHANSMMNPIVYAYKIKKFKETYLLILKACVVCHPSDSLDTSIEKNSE

given.smiles: CC(=O)Nc1c(C(C)=O)c(=O)n(C)c2nc(-c3ccc(Cl)cc3Cl)c(-c3ccc(Cl)cc3)cc12
target.of.assay: Adenosine receptor A3 (Homo sapiens, UniProt P0DMS8)
Ki (nM): 773

----------
biological target: Tyrosine-protein kinase ABL1 (Homo sapiens, UniProt P00519, T315I); assay: Selectivity interaction (Enzymatic assay) EUB0000178b ABL1

given.smiles: CN1C(=O)c2sccc2N(C)c2nc(Nc3ccc(S(N)(=O)=O)cc3)ncc21
IC50: 16.6 nM

----------
biological target: Serine/threonine-protein kinase PLK3 (Homo sapiens); experiment: Selectivity interaction (Enzymatic assay) EUB0000608a PLK3
Sequence (Q9H4B4 whole entry): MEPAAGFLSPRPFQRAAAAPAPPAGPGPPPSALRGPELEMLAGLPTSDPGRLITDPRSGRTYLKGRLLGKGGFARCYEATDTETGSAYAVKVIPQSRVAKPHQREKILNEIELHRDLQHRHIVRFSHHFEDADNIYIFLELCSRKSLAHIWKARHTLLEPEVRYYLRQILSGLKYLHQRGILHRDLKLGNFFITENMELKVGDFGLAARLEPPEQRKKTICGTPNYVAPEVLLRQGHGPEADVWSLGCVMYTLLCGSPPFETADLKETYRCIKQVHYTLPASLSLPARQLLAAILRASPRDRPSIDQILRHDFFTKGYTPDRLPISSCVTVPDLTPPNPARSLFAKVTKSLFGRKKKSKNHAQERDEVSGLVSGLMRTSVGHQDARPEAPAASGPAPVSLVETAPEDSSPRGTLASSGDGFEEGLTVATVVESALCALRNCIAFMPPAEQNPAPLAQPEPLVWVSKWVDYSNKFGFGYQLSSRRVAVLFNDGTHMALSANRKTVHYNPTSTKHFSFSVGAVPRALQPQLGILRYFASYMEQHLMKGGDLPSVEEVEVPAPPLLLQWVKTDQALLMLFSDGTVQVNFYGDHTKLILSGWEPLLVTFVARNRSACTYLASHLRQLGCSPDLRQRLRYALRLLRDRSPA
pIC50: −log10 of the molar value.

given.smiles: CCOc1cc(N2CCC(O)CC2)ccc1Nc1ncc2c(n1)N(C1CCCC1)CCC(=O)N2C
pIC50: 5.80

----------
target: Cyclin-dependent kinase 2 (Homo sapiens); assay: Selectivity interaction (Kinase panel (enzymatic assay)) EUB0000698a CDK2
reported.property: IC50 (µM)

molecule: COc1cc2ncn(-c3cc(OCc4ccccc4C(F)(F)F)c(C(N)=O)s3)c2cc1OC [GW843682X]
reported.property: IC50
observed: 7.6

----------
molecular target: Homeodomain-interacting protein kinase 1 (Homo sapiens); assay: Selectivity interaction (NanoBRET assay (HEK293T cells)) EUB0000724a HIPK1
Sequence (Q86Z02 whole entry): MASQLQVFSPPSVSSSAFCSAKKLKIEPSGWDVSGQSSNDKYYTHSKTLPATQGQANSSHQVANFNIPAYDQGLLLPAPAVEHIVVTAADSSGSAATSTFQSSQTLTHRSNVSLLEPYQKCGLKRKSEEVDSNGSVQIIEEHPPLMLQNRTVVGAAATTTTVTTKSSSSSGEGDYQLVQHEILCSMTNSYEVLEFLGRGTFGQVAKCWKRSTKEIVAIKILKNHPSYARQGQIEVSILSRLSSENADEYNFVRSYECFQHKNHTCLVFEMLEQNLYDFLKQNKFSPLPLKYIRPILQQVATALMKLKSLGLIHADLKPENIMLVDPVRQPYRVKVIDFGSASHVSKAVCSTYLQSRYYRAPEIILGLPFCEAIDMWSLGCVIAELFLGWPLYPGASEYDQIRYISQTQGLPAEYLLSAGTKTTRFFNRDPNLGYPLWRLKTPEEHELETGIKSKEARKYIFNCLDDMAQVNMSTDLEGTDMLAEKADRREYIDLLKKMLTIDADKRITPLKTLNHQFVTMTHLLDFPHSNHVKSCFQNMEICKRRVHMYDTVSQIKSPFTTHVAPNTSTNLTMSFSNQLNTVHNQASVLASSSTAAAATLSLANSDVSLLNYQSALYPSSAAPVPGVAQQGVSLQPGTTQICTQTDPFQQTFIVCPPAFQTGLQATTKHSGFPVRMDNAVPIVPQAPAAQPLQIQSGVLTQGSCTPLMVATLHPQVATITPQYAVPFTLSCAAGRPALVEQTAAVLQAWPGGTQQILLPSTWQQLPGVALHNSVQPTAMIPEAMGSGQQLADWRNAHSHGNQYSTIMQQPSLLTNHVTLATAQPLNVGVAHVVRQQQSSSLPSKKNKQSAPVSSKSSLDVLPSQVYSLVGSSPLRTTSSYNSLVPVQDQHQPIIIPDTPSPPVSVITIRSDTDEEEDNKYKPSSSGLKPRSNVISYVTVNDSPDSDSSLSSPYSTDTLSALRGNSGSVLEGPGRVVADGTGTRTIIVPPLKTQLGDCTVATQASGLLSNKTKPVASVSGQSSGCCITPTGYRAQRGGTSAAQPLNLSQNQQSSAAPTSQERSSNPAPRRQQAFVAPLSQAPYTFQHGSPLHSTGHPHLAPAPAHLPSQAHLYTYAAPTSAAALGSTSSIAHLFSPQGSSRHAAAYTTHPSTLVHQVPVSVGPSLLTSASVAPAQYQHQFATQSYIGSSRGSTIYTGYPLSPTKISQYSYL
reported.property: IC50

given.smiles: COc1cc(Nc2nccc(-c3cnn4nc(OC)ccc34)n2)cc(C(F)(F)F)c1
reported.property: IC50
observed: > 10 µM

----------
target: N-lysine methyltransferase KMT5A (Homo sapiens, UniProt Q9NQR1); experiment: Selectivity interaction (Methyltransferase panel) EUB0000196bCl SETD8

given.smiles: O=C([C@@H](Cc1cccc(C(F)(F)F)c1)NS(=O)(=O)c1cc(F)c2c(c1)CCNC2)N1CCCC1
EC50: > 10 µM

----------
target: Platelet-derived growth factor receptor alpha (Homo sapiens); assay: Selectivity interaction (NanoBRET assay (HEK293T cells)) EUB0000321b PDGFRA
pIC50: −log10 of the molar value.
reported.property: pIC50

given.smiles: CN1CCN(C(=O)C(C)(C)c2ccc(C(=O)Nc3cn4cc(-c5ccncc5)ccc4n3)cc2)CC1
target.of.assay: Platelet-derived growth factor receptor alpha (Homo sapiens)
observed: 5.60

----------
biological target: UniProtKB P28223; test: Selectivity interaction (GPCR panel (PDSP screen)) EUB0000540a HTR2A
Sequence (P28223 whole entry): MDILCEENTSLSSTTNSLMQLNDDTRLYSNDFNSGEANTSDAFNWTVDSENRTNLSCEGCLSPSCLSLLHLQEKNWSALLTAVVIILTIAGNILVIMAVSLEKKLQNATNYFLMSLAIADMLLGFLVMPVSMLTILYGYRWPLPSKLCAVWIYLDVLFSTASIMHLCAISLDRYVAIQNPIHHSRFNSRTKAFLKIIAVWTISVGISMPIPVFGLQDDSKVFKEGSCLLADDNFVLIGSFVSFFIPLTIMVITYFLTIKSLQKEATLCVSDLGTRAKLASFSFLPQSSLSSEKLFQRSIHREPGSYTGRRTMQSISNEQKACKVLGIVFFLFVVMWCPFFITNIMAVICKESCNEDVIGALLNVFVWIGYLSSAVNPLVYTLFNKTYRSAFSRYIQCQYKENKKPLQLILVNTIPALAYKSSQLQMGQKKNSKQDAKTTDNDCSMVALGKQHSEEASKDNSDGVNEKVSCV
reported.property: Ki (nM)

given.smiles: O=C(Nc1cccnn1)N1CC(C/C=C/c2cncc(Oc3ccc(C(F)(F)F)cn3)n2)C1
reported.property: Ki
observed: 249

----------
target: High affinity 3',5'-cyclic-AMP phosphodiesterase 7A (Homo sapiens, UniProt Q13946); assay: Selectivity interaction (PDE panel (enzymatic activity assay)) EUB0000751a PDE7A
Sequence (Q13946 whole entry): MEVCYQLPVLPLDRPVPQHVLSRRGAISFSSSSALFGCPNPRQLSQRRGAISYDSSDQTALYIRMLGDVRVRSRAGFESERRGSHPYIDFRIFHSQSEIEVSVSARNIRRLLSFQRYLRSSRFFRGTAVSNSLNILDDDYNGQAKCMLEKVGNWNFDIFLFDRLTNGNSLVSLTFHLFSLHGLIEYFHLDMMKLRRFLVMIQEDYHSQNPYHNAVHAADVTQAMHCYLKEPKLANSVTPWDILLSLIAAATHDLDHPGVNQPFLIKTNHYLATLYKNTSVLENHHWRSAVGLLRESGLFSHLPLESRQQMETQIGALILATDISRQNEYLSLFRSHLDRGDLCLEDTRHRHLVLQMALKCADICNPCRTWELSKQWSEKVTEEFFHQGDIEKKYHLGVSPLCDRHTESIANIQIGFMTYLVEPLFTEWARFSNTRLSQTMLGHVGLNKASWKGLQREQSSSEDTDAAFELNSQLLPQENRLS
pKi: −log10 of the molar value.

given.smiles: COCCOc1nc(-c2ccc(Cl)nc2)nc2c1CN(C(=O)c1ncn3ccccc13)CC2
pKi: < 4.95

----------
molecular target: Mu-type opioid receptor (Homo sapiens, UniProt P35372); assay: Selectivity interaction (GloSensor assay) EUB0000234b OPRM1
pEC50: −log10 of the molar value.

given.smiles: COc1cc(OC)cc(-c2noc(N3CCN(C)C4(CCN(c5ccnc(C)c5)CC4)C3)n2)c1
pEC50: < 5.00

----------
biological target: Activated CDC42 kinase 1 (Homo sapiens); test: Selectivity interaction (Z’-LYTE assay (SelectScreen Invitrogen)) EUB0000690a TNK2
pKi: −log10 of the molar value.

given.smiles: C[C@H]1Oc2cc(cnc2N)-c2c(nn(C)c2C#N)CN(C)C(=O)c2ccc(F)cc21
pKi: 7.77

----------
target: Casein kinase I isoform gamma-3 (Homo sapiens); experiment: Selectivity interaction (NanoBRET assay (HEK293T cells)) EUB0000718a CSNK1G3
pIC50: −log10 of the molar value.

given.smiles: O=C(NCCN1CCOCC1)c1ccc2c(c1)C(=O)c1ccc(Nc3ccc(F)c(NC(=O)c4ccccc4)c3)cc1CC2
target.of.assay: Casein kinase I isoform gamma-3 (Homo sapiens)
pIC50: < 4.70

----------
target: Gamma-aminobutyric acid receptor subunit alpha-1 (Homo sapiens); assay: Selectivity interaction (GPCR panel (PDSP screen)) EUB0000548a GABRA1
reported.property: Ki (nM)

given.smiles: NS(=O)(=O)c1cc(NC(=O)C2(c3ccccc3Cl)CC2)ccc1Oc1cccc(Cl)c1
observed: 250

----------
molecular target: Serine/threonine-protein kinase 38-like (Homo sapiens); assay: Selectivity interaction (NanoBRET assay (HEK293T cells)) EUB0000712a STK38L
Sequence (Q9Y2H1 whole entry): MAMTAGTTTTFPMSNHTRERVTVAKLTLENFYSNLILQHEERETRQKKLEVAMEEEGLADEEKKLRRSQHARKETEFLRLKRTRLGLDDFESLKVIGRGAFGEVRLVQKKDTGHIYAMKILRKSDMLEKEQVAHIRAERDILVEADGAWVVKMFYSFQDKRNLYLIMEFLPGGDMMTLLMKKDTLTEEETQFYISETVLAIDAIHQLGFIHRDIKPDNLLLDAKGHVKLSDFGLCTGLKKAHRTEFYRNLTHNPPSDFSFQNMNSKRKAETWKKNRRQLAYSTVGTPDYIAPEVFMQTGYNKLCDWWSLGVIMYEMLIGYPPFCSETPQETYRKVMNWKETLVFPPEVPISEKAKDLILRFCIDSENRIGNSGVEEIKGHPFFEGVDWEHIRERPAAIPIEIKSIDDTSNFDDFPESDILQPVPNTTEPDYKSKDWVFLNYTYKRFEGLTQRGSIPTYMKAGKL
pIC50: −log10 of the molar value.

compound: CS(=O)(=O)N1CCCC(NC(=O)[C@H](CCC2CCCCC2)NC(=O)c2ccc(CNC(=O)c3cnc4ccccn34)cc2)C1 (stereo partly specified)
pIC50: < 4.60

----------
biological target: Histone acetyltransferase KAT2B (Homo sapiens); assay: Selectivity interaction (TR-FRET assay) EUB0000256b KAT2B
pIC50: −log10 of the molar value.

given.smiles: CN1C[C@H](Nc2cnn(C)c(=O)c2Br)C[C@H](c2ccccc2)C1
pIC50: 7.40

----------
biological target: D(1A) dopamine receptor (Homo sapiens); test: Selectivity interaction (GPCR panel (PDSP screen)) EUB0000335a DRD1

compound: O=C(NCc1ncc(C(F)(F)F)cc1Cl)c1ccc2c(c1)C1(CCS(=O)(=O)CC1)[C@@H](C1CC1)N2S(=O)(=O)c1ccc(F)cc1 [BAY-786]
Ki: > 10 µM

----------
target: Alpha-2C adrenergic receptor (Homo sapiens); experiment: Selectivity interaction (GPCR panel (PDSP screen)) EUB0000705a ADRA2C
Sequence (P18825 whole entry): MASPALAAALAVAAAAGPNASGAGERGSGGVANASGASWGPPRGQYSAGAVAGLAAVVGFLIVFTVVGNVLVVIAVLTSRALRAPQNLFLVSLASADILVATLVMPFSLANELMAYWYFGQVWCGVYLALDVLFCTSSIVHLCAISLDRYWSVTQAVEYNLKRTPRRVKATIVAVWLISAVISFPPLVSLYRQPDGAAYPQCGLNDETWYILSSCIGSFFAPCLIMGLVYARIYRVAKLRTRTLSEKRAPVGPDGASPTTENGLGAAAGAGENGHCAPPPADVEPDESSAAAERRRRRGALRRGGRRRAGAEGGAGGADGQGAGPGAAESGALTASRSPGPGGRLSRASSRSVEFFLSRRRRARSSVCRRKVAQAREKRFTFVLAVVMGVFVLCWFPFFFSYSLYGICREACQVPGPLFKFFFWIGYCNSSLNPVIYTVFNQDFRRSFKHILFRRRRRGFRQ
pKi: −log10 of the molar value.

given.smiles: CN1CCN(C(=O)C(C)(C)c2ccc(C(=O)Nc3cn4cc(-c5cc(C(C)(C)C)cc(C(C)(C)C)c5)ccc4n3)cc2)CC1
pKi: < 5.00

----------
target: Protein arginine N-methyltransferase 1 (Homo sapiens); assay: Selectivity interaction (HMT panel) EUB0000194b PRMT1
pIC50: −log10 of the molar value.

given.smiles: COc1cc2c(NC3CCN(C(C)C)CC3)nc(N3CCC(F)(F)CC3)nc2cc1OCCCN1CCCC1
pIC50: < 5.00

----------
biological target: UniProtKB Q15910; experiment: Selectivity interaction (Methyltransferase panel (radioactive enzyme assay)) EUB0000216b EZH2
pIC50: −log10 of the molar value.

given.smiles: CC(C)N(CCCNC(=O)Nc1ccc(C(C)(C)C)cc1)C[C@H]1O[C@@H](n2cc(Br)c3c(N)ncnc32)[C@H](O)[C@@H]1O
pIC50: < 4.00

----------
target: Dual specificity mitogen-activated protein kinase kinase 5 (Homo sapiens, UniProt Q13163); test: Selectivity interaction (NanoBRET assay (HEK293T cells)) EUB0000305b MAP2K5
Sequence (Q13163 whole entry): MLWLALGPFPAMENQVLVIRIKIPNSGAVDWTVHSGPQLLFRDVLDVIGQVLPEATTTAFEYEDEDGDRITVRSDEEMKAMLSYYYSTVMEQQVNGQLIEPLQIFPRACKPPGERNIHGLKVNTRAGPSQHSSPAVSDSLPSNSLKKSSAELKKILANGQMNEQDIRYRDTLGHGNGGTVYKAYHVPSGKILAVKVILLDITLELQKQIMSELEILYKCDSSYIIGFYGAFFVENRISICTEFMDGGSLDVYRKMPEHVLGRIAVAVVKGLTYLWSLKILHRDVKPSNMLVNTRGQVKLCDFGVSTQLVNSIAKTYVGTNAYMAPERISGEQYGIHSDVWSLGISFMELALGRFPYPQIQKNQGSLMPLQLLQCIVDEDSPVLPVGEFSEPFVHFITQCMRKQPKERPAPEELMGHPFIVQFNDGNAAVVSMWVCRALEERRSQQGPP

molecule: C[C@H](c1ccnc(Nc2nc3ccc(-c4cc(N(C)C)ncn4)cc3[nH]2)c1)N1CCN(C(=O)CC(F)(F)F)CC1 [BAY-985]
IC50: > 20 µM

----------
molecular target: Collagenase 3 (Homo sapiens); assay: Selectivity interaction (MMPs panel (Panlabs panel, Bayer)) EUB0000725a MMP13
pIC50: −log10 of the molar value.
reported.property: pIC50

compound: O=C(O)[C@@H]1[C@@H](Cn2nnc3ccccc3c2=O)CC[C@H]1C(=O)c1ccc(OCCC2CCOCC2)cc1 [BAY-694]
reported.property: pIC50
observed: < 5.00

----------
molecular target: DNA (cytosine-5)-methyltransferase 1 (Homo sapiens); assay: Selectivity interaction (Methyltransferase panel) EUB0000196bCl DNMT1
reported.property: EC50

given.smiles: O=C([C@@H](Cc1cccc(C(F)(F)F)c1)NS(=O)(=O)c1cc(F)c2c(c1)CCNC2)N1CCCC1
observed: > 10 µM

----------
target: Tribbles homolog 2 (Homo sapiens, UniProt Q92519); assay: Selectivity interaction (PSP kinase safety panel (Eurofins)) EUB0000283b TRIB2
Sequence (Q92519 whole entry): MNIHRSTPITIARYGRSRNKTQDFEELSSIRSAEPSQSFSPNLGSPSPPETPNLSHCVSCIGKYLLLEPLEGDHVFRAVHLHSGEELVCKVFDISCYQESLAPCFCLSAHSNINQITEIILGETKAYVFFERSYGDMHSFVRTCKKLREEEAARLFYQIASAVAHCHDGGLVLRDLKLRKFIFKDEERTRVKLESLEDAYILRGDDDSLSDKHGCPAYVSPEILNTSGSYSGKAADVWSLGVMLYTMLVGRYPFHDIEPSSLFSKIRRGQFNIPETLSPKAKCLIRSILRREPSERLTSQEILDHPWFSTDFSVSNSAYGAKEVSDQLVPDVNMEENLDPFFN
pIC50: −log10 of the molar value.
reported.property: pIC50

given.smiles: C[C@H]1CCCN1Cc1nc2cc(NC(=O)c3ccc4cnccc4c3)ccc2[nH]1
observed: 5.46

----------
Target: Gamma-aminobutyric acid receptor subunit alpha-1 (Homo sapiens)
Sequence (P14867 whole entry): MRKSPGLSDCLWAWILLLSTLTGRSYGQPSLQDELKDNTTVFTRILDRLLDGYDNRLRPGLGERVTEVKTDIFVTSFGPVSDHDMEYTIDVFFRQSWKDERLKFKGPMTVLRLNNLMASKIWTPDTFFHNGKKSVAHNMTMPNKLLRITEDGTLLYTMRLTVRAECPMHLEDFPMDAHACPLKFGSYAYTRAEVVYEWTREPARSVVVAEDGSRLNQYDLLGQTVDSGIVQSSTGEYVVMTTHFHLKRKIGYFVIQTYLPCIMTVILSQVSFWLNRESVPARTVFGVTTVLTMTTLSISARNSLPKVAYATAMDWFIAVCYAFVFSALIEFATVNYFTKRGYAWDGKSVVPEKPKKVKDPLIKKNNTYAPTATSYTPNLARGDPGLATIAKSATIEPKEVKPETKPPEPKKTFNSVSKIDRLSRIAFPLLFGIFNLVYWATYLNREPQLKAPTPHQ
Assay: Selectivity interaction (GPCR panel (PDSP screen)) EUB0000303b GABRA1

given.smiles: Cc1nc(N2CC[C@H](O)C2)ncc1-c1cc(C(F)(F)F)cc2[nH]ncc12
result.units: µM
Ki: 4.54
